experimental target: BACE2 enzyme (Homo sapiens, UniProt Q9Y5Z0)
Sequence (Q9Y5Z0 63-518): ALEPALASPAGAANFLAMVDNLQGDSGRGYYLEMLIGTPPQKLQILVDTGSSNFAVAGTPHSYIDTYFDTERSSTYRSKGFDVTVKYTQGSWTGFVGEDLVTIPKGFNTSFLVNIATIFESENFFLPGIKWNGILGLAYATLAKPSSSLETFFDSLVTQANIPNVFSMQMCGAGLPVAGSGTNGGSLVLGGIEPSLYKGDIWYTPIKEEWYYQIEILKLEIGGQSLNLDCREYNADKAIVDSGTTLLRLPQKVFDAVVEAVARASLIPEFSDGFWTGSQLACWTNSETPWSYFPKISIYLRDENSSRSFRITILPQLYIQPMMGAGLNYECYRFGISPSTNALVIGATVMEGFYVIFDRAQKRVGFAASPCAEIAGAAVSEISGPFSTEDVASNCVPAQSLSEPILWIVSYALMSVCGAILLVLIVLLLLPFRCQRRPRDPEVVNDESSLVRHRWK
assay comment: BACE2 enzyme inhibition, Ki from kinetic data under tight-binding conditions
Assay type: biochemical
stated conditions: read-out: BACE2 Ki
measurement label: pKi
Schema: pKi number; meaning minus log10 of the concentration expressed in molar units.

-- ask Look up pKi for this molecule: `COc1cccc([C@@H](NC[C@@H](O)[C@H](Cc2ccccc2)NC(=O)c2cc(C(=O)N[C@H](C)c3ccccc3)cc(N(C)S(C)(=O)=O)c2)[C@H](C)O)c1`
-- reply 6.14

-- ask Would you kindly repeat that for `COc1cccc(CNC[C@@H](O)[C@H](Cc2ccccc2)NC(=O)c2cccc(C(=O)N(C)[C@H](C)c3ccccc3)c2)c1` ?
-- reply 7.40
